- Test system: SEM cells
- METHOD DESCRIPTION: cell viability relative to DMSO control; higher = less cytotoxic
- ASSAY SETUP: RPMI 5 mM glucose + 10% FBS; 48 h; 1.71 µM
Entries and their cell viability values follow.
Kindly answer with a numeric value in %, unit omitted.

Example entries begin here.
{"CHEMICAL STRING": "CCC(=O)NC[C@H](Cc1ccc(OCCc2nc(-c3ccccc3)oc2C)cc1)N/C(C)=C\\C(=O)c1ccc(C(F)(F)F)cc1", "NUMERIC VALUE": 83.4}
{"CHEMICAL STRING": "NC(=O)c1nnn(Cc2cc(Cl)c(C(=O)c3ccc(Cl)cc3)c(Cl)c2)c1N", "NUMERIC VALUE": 110}
{"CHEMICAL STRING": "O=C(O)c1cccc(-c2noc(-c3ccccc3F)n2)c1", "NUMERIC VALUE": 99.3}

Now take the following compound into account.
Any idea what cell viability was measured for NC(=O)N1CCC(CC(=O)N2CCC([C@H]3c4ncc(Br)cc4CCc4cc(Cl)cc(Br)c43)CC2)CC1 ? 66.3
